src = ChEMBL document CHEMBL1201862

Test system: SW-620
Experiment: NCI tumour cell line growth inhibition, 48 h
Activity calls are given as the source filed them. Rule as the data show it: active = GI50 up to about 1.1 µM and inactive = higher.
Parameter call: string, one of active, inactive

The following compounds have reported results that may help.
| Compound | Label Class |
| --- | --- |
| Oc1ccc(Br)cc1/C=N/c1cccc(C(F)(F)F)c1 | inactive |
| C=CCC(NCc1ccccc1)[C@H](OCc1ccccc1)[C@@H]1COC(C)(C)O1 (stereo not given in full) | inactive |
| Nc1nc(O)nc2c1ncn2C1OC(CO)C(O)C1O (stereo not given) | inactive |
| Fc1cccc(F)c1C1SCC2=Nc3ccccc3CN21 (stereo not given) | inactive |
| CO[C@]12CC(=O)C3(C(C[C@H]4CC5CC=C6C[C@@H](OC(C)=O)CC[C@]6(OC(C)=O)C5C[C@@]43C)C1)C1C[C@H]3[C@@H]4CC=C5C[C@@H](OC(C)=O)CC[C@]5(OC(C)=O)[C@H]4CC[C@]3(C)C12 (stereo not given in full) | inactive |

input: For COC1(OC)CCCCC2c3cccc(OC(C)=O)c3C21OC(C)=O (stereo not given) , what call appears in the results of this test?
output: inactive

input: Now give it for "CCOC(=O)NC(Nc1ccc(C(=O)OCC)cc1)(C(F)(F)F)C(F)(F)F" too.
output: inactive

input: Now consider "COc1ccc2c(C(=O)c3cn(CCN4CCOCC4)c4ccccc34)cccc2c1" .
output: inactive

input: Next compound: CC1CCCC(CC(=O)O)(CC(=O)O)C1 (stereo not given)
output: inactive

input: And what about the compound "N/C(COc1ccc(Cl)cc1)=N\NC(=O)c1ccncc1" ?
output: inactive

input: Repeat for the following compound: "N#Cc1ccc(OCCSCCCCCCCCCCSCCOc2ccc(C#N)cc2)cc1"
output: inactive

input: Likewise for OC1CCC(COC(c2ccccc2)(c2ccccc2)c2ccccc2)O1 (stereo not given) ?
output: inactive
